# TARGET OR SYSTEM: CDK16 (human) (UniProt Q00536)
# Sequence (Q00536 whole entry, looked up): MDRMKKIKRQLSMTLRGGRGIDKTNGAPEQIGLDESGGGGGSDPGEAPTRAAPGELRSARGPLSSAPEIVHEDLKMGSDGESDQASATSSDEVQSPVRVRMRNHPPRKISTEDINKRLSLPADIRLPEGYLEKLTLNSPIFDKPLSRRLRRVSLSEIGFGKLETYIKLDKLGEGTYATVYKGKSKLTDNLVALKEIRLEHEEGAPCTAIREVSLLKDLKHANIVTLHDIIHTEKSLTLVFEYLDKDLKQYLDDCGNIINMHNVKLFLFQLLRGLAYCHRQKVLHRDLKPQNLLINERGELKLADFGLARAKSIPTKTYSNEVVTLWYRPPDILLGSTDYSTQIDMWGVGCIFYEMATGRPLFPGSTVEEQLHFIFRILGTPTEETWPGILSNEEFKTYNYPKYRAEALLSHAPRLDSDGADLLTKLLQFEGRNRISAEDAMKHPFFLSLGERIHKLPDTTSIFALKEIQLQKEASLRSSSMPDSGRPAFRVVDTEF
# PROCEDURE TEXT: KINOMEscan competition binding
# PARTICULARS: compound 10.0 µM
Items are presented alongside their recorded kinase still bound, per cent of control.
REPORTED PROPERTY: kinase still bound, per cent of control (%)

INSERT INTO results (molecule, target_or_system, reported_property, observed) VALUES
  ('CN1C(=O)[C@H]2CCC[C@H]2N(C2CCCC2)c2nc(Nc3ccc(C(N)=O)cc3)ncc21', 'CDK16 (human) (UniProt Q00536)', 'kinase still bound, per cent of control', 18),
  ('O=C1NC(=S)S/C1=C\c1ccc(-c2cncc3ccccc23)o1', 'CDK16 (human) (UniProt Q00536)', 'kinase still bound, per cent of control', 5.2),
  ('CS(=O)C1=NC(=O)/C(=C/c2ccc(-c3ccc(S(N)(=O)=O)cc3)o2)S1 (stereo not drawn)', 'CDK16 (human) (UniProt Q00536)', 'kinase still bound, per cent of control', 9.3);

---

# Tested on: EGFR (human), P00533 [G719C; 746-750 del]
# PROCEDURE TEXT: KINOMEscan competition binding
# PARTICULARS: compound 10.0 µM
REPORTED PROPERTY: kinase still bound, per cent of control (%)

INSERT INTO measurements (molecule, measurement_unit, observed) VALUES
  ('COc1cc(N2CCC(O)CC2)ccc1Nc1ncc2c(n1)N(C1CCCC1)CCC(=O)N2C', '%', 32),
  ('COc1cc(N2CCC(N3CCN(C)CC3)CC2)ccc1Nc1ncc2c(n1)N(C1CCCC1)C(C)CC(=O)N2 (configuration not stated)', '%', 30),
  ('Nc1cccc(-c2cc(/C=C3\SC(=O)NC3=O)c[nH]c2=O)c1', '%', 30),
  ('COc1cc(N2CCN(C)CC2)ccc1Nc1ncc2c(n1)Nc1ccccc1NC2=O', '%', 39),
  ('COc1cc(C(=O)NC2CCN(C)CC2)ccc1Nc1ncc2c(n1)N(CCc1ccccc1)CCC(=O)N2C', '%', 23),
  ('CN1C(=O)c2ccccc2N(C)c2nc(Nc3ccc(N4CCC(O)CC4)cc3)ncc21', '%', 100),
  ('COc1cc(N2CCC(N3CCN(C)CC3)CC2)ccc1Nc1ncc2c(n1)N(C1CCCC1)C(C)CC(=O)N2C (configuration not stated)', '%', 32);

---

Items are presented alongside their recorded kinase still bound, per cent of control.
# TARGET OR SYSTEM: UniProtKB P51451
# Sequence (P51451 whole entry, looked up): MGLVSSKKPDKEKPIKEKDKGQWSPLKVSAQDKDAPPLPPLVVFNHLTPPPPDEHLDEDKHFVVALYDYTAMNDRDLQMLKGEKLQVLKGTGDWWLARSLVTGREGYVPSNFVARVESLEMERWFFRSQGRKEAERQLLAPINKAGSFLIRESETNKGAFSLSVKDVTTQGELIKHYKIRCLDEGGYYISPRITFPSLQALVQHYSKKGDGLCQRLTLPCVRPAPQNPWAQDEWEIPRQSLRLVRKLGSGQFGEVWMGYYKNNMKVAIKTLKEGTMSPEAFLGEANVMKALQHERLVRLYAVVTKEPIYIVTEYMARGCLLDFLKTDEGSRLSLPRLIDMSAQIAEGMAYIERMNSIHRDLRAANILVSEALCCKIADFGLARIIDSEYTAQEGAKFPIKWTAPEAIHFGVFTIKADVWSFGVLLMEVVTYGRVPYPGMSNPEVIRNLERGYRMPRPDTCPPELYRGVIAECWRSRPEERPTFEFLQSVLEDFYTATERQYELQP
# PROCEDURE TEXT: KINOMEscan competition binding
# PARTICULARS: compound 10.0 µM
REPORTED PROPERTY: kinase still bound, per cent of control (%)

INSERT INTO assay_data (smiles_repr, reported_property, measurement_unit, observed) VALUES
  ('O=C1NC(=O)/C(=C/c2c[nH]c(=O)c(-c3ccc(N4CCNCC4)nc3)c2)S1', 'kinase still bound, per cent of control', '%', 100),
  ('COc1cc(N2CCN(C)CC2)ccc1Nc1ncc2c(n1)N1CCC[C@H]1CC(=O)N2', 'kinase still bound, per cent of control', '%', 23),
  ('CN1C(=O)c2ccccc2N(C)c2nc(Nc3ccc(N4CCC(O)CC4)cc3)ncc21', 'kinase still bound, per cent of control', '%', 12),
  ('CN1CCN(c2ccc(C(=O)Nc3ncc4c(n3)N(C)c3ccccc3C(=O)N4C)cc2)CC1', 'kinase still bound, per cent of control', '%', 100),
  ('COc1cc(N2CCN(C)CC2)ccc1Nc1ncc2c(n1)N(c1ccccc1)CCC(=O)N2', 'kinase still bound, per cent of control', '%', 21),
  ('COc1cc(N2CCN(C)CC2)ccc1Nc1ncc2c(n1)N(C)c1sccc1C(=O)N2C', 'kinase still bound, per cent of control', '%', 100),
  ('CN1C(=O)c2ccccc2N(C)c2nc(NS(=O)(=O)c3ccc(N)cc3)ncc21', 'kinase still bound, per cent of control', '%', 100),
  ('COc1cc(N2CCN(C)CC2)ccc1Nc1ncc2c(n1)Nc1ccccc1NC2=O', 'kinase still bound, per cent of control', '%', 49);
